# System: Vero
# ASSAY_PROTOCOL: Cytotoxicity against African green monkey Vero cells
# Assay type: cell-based
# EXPERIMENTAL_SETUP: Chlorocebus sabaeus
Quick reference: EC50 of the listed items.
MEASURED_METRIC: EC50 (µM)

{"SMILES_RECORD": "Cc1cc(N(C)C)nc(NCC2CCOCC2)n1", "MODIFIER": ">", "MEASURED_VALUE": 50.1}
{"SMILES_RECORD": "Cc1cc(N(C)C)nc(Nc2ccc(C(=O)NCc3ccccc3)cc2)n1", "MODIFIER": "=", "MEASURED_VALUE": 5.01}
{"SMILES_RECORD": "COc1cccc(Nc2cc(C)nc(NCc3ccccc3)n2)c1", "MODIFIER": "=", "MEASURED_VALUE": 7.94}
{"SMILES_RECORD": "COc1ccc(Nc2nc(C)cc(N(C)C)n2)cc1", "MODIFIER": ">", "MEASURED_VALUE": 50.1}
{"SMILES_RECORD": "Cc1cc(Nc2ccc(F)cc2)nc(NCc2ccccc2)n1", "MODIFIER": "=", "MEASURED_VALUE": 7.94}
{"SMILES_RECORD": "COc1cc(Nc2nc(C)cc(NCc3ccccc3)n2)ccc1F", "MODIFIER": "=", "MEASURED_VALUE": 5.01}
{"SMILES_RECORD": "COc1cc(Nc2nc(C(=O)N3CCCC3)cc(N(C)C)n2)ccc1F", "MODIFIER": ">", "MEASURED_VALUE": 50.1}
{"SMILES_RECORD": "Cc1cc(N(C)C)nc(N[C@H](C)c2ccccc2)n1", "MODIFIER": ">", "MEASURED_VALUE": 50.1}
